pKi listing for selected compounds.
- measurementTarget: UniProt P22102
- Sequence (P22102 808-1010): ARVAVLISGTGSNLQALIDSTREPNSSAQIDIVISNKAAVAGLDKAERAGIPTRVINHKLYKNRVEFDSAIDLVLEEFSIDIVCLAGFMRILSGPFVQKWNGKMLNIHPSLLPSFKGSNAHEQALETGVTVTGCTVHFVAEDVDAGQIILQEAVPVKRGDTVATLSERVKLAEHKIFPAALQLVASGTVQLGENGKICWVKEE
As a rule, pKi stands for the negative log10 of the concentration, concentration in M.

[
  {
    "structureSmilesString": "Nc1nc2ccn(CCCCc3csc(C(=O)N[C@@H](CCC(=O)O)C(=O)O)c3F)c2c(=O)[nH]1",
    "endpointResult": 5.60
  }
]

# context switch: different compound, same pKi
Task: Request the reported pKi associated with `Nc1nc2ccn(CCCCc3ccc(C(=O)N[C@@H](CCC(=O)O)C(=O)O)c(F)c3)c2c(=O)[nH]1`
Result: 5.50

###

- Test system: KB (RFC/PCFT/FRα) cells
- assayProtocol: Growth inhibition, KB nasopharyngeal carcinoma cells
- Assay type: cell-based, human
- protocolConditions: Homo sapiens, KB, folate-free RPMI 1640, 2 nM leucovorin, mean (SE)
readoutType: pIC50
As a rule, pIC50 stands for the negative log10 of the concentration, concentration in M.

[
  {
    "compound": "Nc1nc2ccn(CCCCCc3ccc(C(=O)N[C@@H](CCC(=O)O)C(=O)O)s3)c2c(=O)[nH]1",
    "endpointResult": 8.13
  }
]

Task: Request the reported pIC50 associated with `Nc1nc2ccn(CCCOc3ccc(C(=O)N[C@@H](CCC(=O)O)C(=O)O)cc3)c2c(=O)[nH]1`
Result: 8.08

Task: Request the reported pIC50 associated with C#CCC(Cc1cnc2nc(N)nc(N)c2n1)c1ccc(C(=O)N[C@@H](CCC(=O)O)C(=O)O)cc1 (stereo partly shown)
Result: 9.33

Task: Request the reported pIC50 associated with `Nc1nc2ccn(CCCCCc3ccc(C(=O)N[C@@H](CCC(=O)O)C(=O)O)cc3)c2c(=O)[nH]1`
Result: 8.20

Task: Request the reported pIC50 associated with `Nc1nc2ccn(CCCCc3ccc(C(=O)N[C@@H](CCC(=O)O)C(=O)O)s3)c2c(=O)[nH]1`
Result: 8.59

###

- measurementTarget: human ATIC (Homo sapiens, UniProt P31939)
- Sequence (P31939 whole entry): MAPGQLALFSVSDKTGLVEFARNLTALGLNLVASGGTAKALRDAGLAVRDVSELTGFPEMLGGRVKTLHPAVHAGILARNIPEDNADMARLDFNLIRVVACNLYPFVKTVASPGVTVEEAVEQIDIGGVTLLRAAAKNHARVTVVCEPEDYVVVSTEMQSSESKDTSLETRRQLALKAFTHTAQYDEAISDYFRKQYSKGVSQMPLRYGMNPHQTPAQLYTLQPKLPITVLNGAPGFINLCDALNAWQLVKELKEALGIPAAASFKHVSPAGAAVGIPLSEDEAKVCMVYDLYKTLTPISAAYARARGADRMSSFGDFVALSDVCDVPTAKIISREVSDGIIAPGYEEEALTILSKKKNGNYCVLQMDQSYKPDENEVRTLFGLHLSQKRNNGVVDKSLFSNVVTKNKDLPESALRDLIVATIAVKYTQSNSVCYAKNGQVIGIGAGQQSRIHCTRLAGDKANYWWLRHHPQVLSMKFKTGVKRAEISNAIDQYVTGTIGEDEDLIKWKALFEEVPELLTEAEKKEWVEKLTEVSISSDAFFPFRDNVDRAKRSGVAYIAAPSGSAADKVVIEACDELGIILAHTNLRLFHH
readoutType: pKi
As a rule, pKi stands for the negative log10 of the concentration, concentration in M.

Task: Request the reported pKi associated with Nc1nc2ccn(CCCSc3ccc(C(=O)N[C@@H](CCC(=O)O)C(=O)O)cc3)c2c(=O)[nH]1 [Compound 7]
Result: 5.32

###

Ki listing for selected compounds.
Target chain: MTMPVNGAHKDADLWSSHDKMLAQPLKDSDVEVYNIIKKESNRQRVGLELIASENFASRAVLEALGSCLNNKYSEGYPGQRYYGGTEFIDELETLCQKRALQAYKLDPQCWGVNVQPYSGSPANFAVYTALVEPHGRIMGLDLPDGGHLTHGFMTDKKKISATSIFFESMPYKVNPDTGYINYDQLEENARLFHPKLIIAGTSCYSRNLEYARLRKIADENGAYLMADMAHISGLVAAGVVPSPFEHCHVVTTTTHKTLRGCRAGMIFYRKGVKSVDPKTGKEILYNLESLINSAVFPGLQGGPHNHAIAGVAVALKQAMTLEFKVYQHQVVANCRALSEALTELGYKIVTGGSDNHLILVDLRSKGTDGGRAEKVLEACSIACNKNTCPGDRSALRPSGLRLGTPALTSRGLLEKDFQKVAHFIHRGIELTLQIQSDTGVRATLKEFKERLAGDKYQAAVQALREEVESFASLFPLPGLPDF

Task: Request the reported Ki associated with `Nc1nc2ccn(CCCCc3ccc(C(=O)N[C@@H](CCC(=O)O)C(=O)O)s3)c2c(=O)[nH]1`
Result: 1.04 µM

Task: Request the reported Ki associated with CN(Cc1cnc2nc(N)nc(N)c2n1)c1ccc(C(=O)N[C@@H](CCC(=O)O)C(=O)O)cc1 [MTX, methotrexate]
Result: > 200 µM

Task: Request the reported Ki associated with `Nc1nc2[nH]cc(CCc3ccc(C(=O)N[C@@H](CCC(=O)O)C(=O)O)cc3)c2c(=O)[nH]1`
Result: > 200 µM

Task: Request the reported Ki associated with C#CCC(Cc1cnc2nc(N)nc(N)c2n1)c1ccc(C(=O)N[C@@H](CCC(=O)O)C(=O)O)cc1 (stereo partly shown)
Result: > 200 µM

###

- System: PC43-10 (RFC) CHO cells
- assayProtocol: Growth inhibition, PC43-10 CHO cells expressing human RFC
- Type: cell-based, Chinese hamster
- protocolConditions: Cricetulus griseus; CHO cells expressing human RFC, 96 h, 25 nM leucovorin; mean (SE); read-out: IC50 PC43-10 (RFC)
readoutType: IC50

Below are worked cases with known answers.
[
  {
    "molecule": "Nc1nc2ccn(CCCc3ccc(C(=O)N[C@@H](CCC(=O)O)C(=O)O)cc3)c2c(=O)[nH]1 [Compound 2]",
    "IC50": "41.9 nM"
  },
  {
    "molecule": "Nc1nc2ccn(CCCCc3cc(F)c(C(=O)N[C@@H](CCC(=O)O)C(=O)O)c(F)c3)c2c(=O)[nH]1 [Compound 12]",
    "IC50": "> 1000 nM"
  },
  {
    "molecule": "Nc1nc2ccn(CCCCCc3ccc(C(=O)N[C@@H](CCC(=O)O)C(=O)O)cc3)c2c(=O)[nH]1 [Compound 9]",
    "IC50": "> 1000 nM"
  },
  {
    "molecule": "Nc1nc2ccn(CCCSc3ccc(C(=O)N[C@@H](CCC(=O)O)C(=O)O)cc3)c2c(=O)[nH]1 [Compound 7]",
    "IC50": "> 1000 nM"
  }
]

Task: Request the reported IC50 associated with Nc1nc2ccn(CCCc3ccc(C(=O)N[C@@H](CCC(=O)O)C(=O)O)s3)c2c(=O)[nH]1 [Compound 4]
Result: > 1000 nM

Task: Request the reported IC50 associated with Nc1nc2ccn(CCCCc3ccc(C(=O)N[C@@H](CCC(=O)O)C(=O)O)cc3)c2c(=O)[nH]1 [Compound 15]
Result: > 1000 nM

Task: Request the reported IC50 associated with Nc1nc2ccn(CCCOc3ccc(C(=O)N[C@@H](CCC(=O)O)C(=O)O)cc3)c2c(=O)[nH]1 [Compound 5]
Result: > 1000 nM

Task: Request the reported IC50 associated with Nc1nc2ccn(CCCCc3ccc(C(=O)N[C@@H](CCC(=O)O)C(=O)O)s3)c2c(=O)[nH]1 [Compound 16]
Result: > 1000 nM

Task: Request the reported IC50 associated with Nc1nc2ccn(CCCNc3ccc(C(=O)N[C@@H](CCC(=O)O)C(=O)O)cc3)c2c(=O)[nH]1 [Compound 8]
Result: > 1000 nM

Task: Request the reported IC50 associated with Nc1nc2ccn(CCCc3ccc(C(=O)N[C@@H](CCC(=O)O)C(=O)O)c(F)c3)c2c(=O)[nH]1 [Compound 13]
Result: 233 nM

Task: Request the reported IC50 associated with Nc1nc2ccn(CCCCc3csc(C(=O)N[C@@H](CCC(=O)O)C(=O)O)c3F)c2c(=O)[nH]1 [Compound 14]
Result: > 1000 nM

Task: Request the reported IC50 associated with Nc1nc2ccn(CCOc3ccc(C(=O)N[C@@H](CCC(=O)O)C(=O)O)cc3)c2c(=O)[nH]1 [Compound 6]
Result: > 1000 nM

###

pIC50 listing for selected compounds.
- Test system: KB (RFC/PCFT/FRα) cells
- assayProtocol: Growth inhibition, KB nasopharyngeal carcinoma cells
- Assay type: cell-based, human
- protocolConditions: Homo sapiens, KB, folate-free RPMI 1640, 2 nM leucovorin, mean (SE)
As a rule, pIC50 stands for the negative log10 of the concentration, concentration in M.

[
  {
    "structureSmilesString": "Nc1nc2ccn(CCCCc3ccc(C(=O)N[C@@H](CCC(=O)O)C(=O)O)cc3)c2c(=O)[nH]1",
    "endpointResult": 8.17
  },
  {
    "structureSmilesString": "Nc1nc2ccn(CCCCc3ccc(C(=O)N[C@@H](CCC(=O)O)C(=O)O)c(F)c3)c2c(=O)[nH]1",
    "endpointResult": 8.89
  },
  {
    "structureSmilesString": "Nc1nc2ccn(CCCCc3cc(F)c(C(=O)N[C@@H](CCC(=O)O)C(=O)O)c(F)c3)c2c(=O)[nH]1",
    "endpointResult": 8.03
  }
]

Task: Request the reported pIC50 associated with `Nc1nc2ccn(CCCNc3ccc(C(=O)N[C@@H](CCC(=O)O)C(=O)O)cc3)c2c(=O)[nH]1`
Result: 8.21

Task: Request the reported pIC50 associated with `Nc1nc2ccn(CCCCc3csc(C(=O)N[C@@H](CCC(=O)O)C(=O)O)c3F)c2c(=O)[nH]1`
Result: 8.22

Task: Request the reported pIC50 associated with `Nc1nc2ccn(CCCCCc3ccc(C(=O)N[C@@H](CCC(=O)O)C(=O)O)c(F)c3)c2c(=O)[nH]1`
Result: 8.20

Task: Request the reported pIC50 associated with `Nc1nc2ccn(CCCc3ccc(C(=O)N[C@@H](CCC(=O)O)C(=O)O)s3)c2c(=O)[nH]1`
Result: 7.63
